System: EKVX NSCLC
Experiment: NCI tumour cell line growth inhibition, 48 h; in the data active = GI50 below about 0.43 µM; inactive = the rest
Possible outcomes: active, inactive

SMILES INPUT | GROUP LABEL
COc1ccc(Nc2ncccc2/C=C/C(=O)c2cc(OC)c(OC)c(OC)c2)cc1 | inactive
O=C(Nc1ncc(Cc2ccccc2)s1)c1ccc2c(c1)OCCCO2 | inactive
CCCCCCCCCCCCCC[P+](CCCCCC)(CCCCCC)CCCCCC | active
CCOC(=O)c1c2c(n3ccc(NC(=O)OC(C)(C)C)cc13)C(=O)c1ncccc1C2=O | active

###

Tested on: IGROV1 ovarian
Assay: NCI tumour cell line growth inhibition, 48 h
TGI values by entry

COMPOUND | ASSAY SYSTEM | TGI
O=c1[nH]c2ccccc2nc1/C=C(\O)C(F)F | IGROV1 ovarian | > 100 µM
COc1ccc(C2=CC(c3cc(OC)c(OC)c(OC)c3)NC(=O)N2)cc1OC (stereo not drawn) | IGROV1 ovarian | 20.4 µM
C=C(C)C(=O)OC1CC2(C)OC2CC(OC(C)=O)/C(C)=C/C2OC(=O)C(=C)C21 (stereo not drawn) | IGROV1 ovarian | 18.6 µM
OCCCCC#Cc1ccccc1C#Cc1ccccc1F | IGROV1 ovarian | 33.1 µM
CSc1nc(NC2OCC(O)C(O)C2O)c(N)c(=O)n1C (stereo not drawn) | IGROV1 ovarian | > 100 µM
Cc1ccc(S(=O)(=O)NC(=O)NCCC(=O)O)cc1 | IGROV1 ovarian | > 100 µM
CCc1ccc(-c2ccc(=O)n(-c3ccc(S(N)(=O)=O)cc3)n2)cc1 | IGROV1 ovarian | > 77.6 µM
CC(=N\O)/C(C)=N/O.CC(=N\O)/C(C)=N/O.CC(=N\O)/C(C)=N/O.CC(=N\O)/C(C)=N/O.[Cu].[Cu] | IGROV1 ovarian | 56.2 µM
Cc1cc(NS(=O)(=O)c2ccc(NC(=O)c3cccc4c(NNc5ccc(S(=O)(=O)N=C(N)N)cc5)c5ccccc5nc34)cc2)no1 | IGROV1 ovarian | > 100 µM
CCON=C1C(C)(C)C(C)(C)C(C)(C)C1(C)C | IGROV1 ovarian | > 100 µM
CN(C)CCOC(=O)c1ccc(N)cc1 | IGROV1 ovarian | 74.9 µM
CCOC(=O)c1c2c(n3ccc(NC(=O)OC(C)(C)C)cc13)C(=O)c1ncccc1C2=O | IGROV1 ovarian | 2.28 µM
COCN1CCN=c2c1c1c3c(c4ccccc4n23)CCC1 | IGROV1 ovarian | > 100 µM
O=C(Nc1ccc(Cl)cc1)c1cc2c(cc1O)[nH]c1ccccc12 | IGROV1 ovarian | 18.7 µM
O=c1[nH]c(=O)n(C2CC(O)C(CO)O2)cc1C(OCC(F)(F)F)OCC(F)(F)F (stereo not drawn) | IGROV1 ovarian | > 100 µM
O=C(NCCCCNCCCNC(=O)c1ccccc1)c1ccccc1 | IGROV1 ovarian | > 100 µM
CCOCC(=O)N[C@H]1CCc2cc(OC)c(OC)c(OC)c2-c2ccc(SC)c(=O)cc21 | IGROV1 ovarian | > 100 µM
Cc1nccn1S(=O)(=O)c1ccc(Br)cc1Br | IGROV1 ovarian | > 100 µM
O=C(Nc1c(Cl)cc([N+](=O)[O-])cc1Cl)C(=O)C1C(=O)NC(=S)NC1=O | IGROV1 ovarian | > 100 µM
O=Nc1c(-c2cccc([N+](=O)[O-])c2)nc2cnccn12 | IGROV1 ovarian | 38.6 µM
O=C(OCCN1CCCCC1)C(c1ccccc1)C1(O)CCSCC1 (stereo not drawn) | IGROV1 ovarian | > 100 µM
ON(CCc1ccncc1)Cc1ccccc1 | IGROV1 ovarian | > 100 µM
O=C1CSC2=NCC3(NN12)c1ccccc1-c1ccccc13 | IGROV1 ovarian | > 10 µM
CC(=O)O[C@H]1CC[C@@]2(C)C(CC[C@]3(C)C2CC[C@]2(C)Oc4c(C)cc(O)cc4C[C@@H]23)C1(C)C (stereo partly drawn) | IGROV1 ovarian | 30 µM
CC(C)(C)OC(=O)NC(Cc1ccc(O)cn1)C(N)=O (stereo not drawn) | IGROV1 ovarian | > 100 µM
COc1ccc(S(=O)(=O)N/N=C/CN2C(=O)c3ccccc3C2=O)cc1OC | IGROV1 ovarian | > 100 µM
O=CN1N=C(c2ccc(Nc3ccnc4cc(Cl)ccc34)cc2)CC1c1ccccc1 (stereo not drawn) | IGROV1 ovarian | > 100 µM
O=C(CC1(O)C(=O)Nc2ccc(Br)cc21)c1ccc(Cl)cc1 (stereo not drawn) | IGROV1 ovarian | > 100 µM
Cc1ccccc1S(=O)(=O)N1[C@H](c2ccc(Cl)cc2)C(C(=O)N[C@@H](Cc2ccccc2)C(N)=O)=C[C@@H]1C(C)(C)C | IGROV1 ovarian | 23.1 µM
CCOC(=O)CCc1c(C(=O)OCC)[nH]c(/C=C2\NC(=O)C(C)=C2CC)c1C | IGROV1 ovarian | 23.7 µM
CC(C)(C)n1c(=O)n(C(=O)C(Cl)(Cl)Cl)n(C(=O)C(Cl)(Cl)Cl)c1=O | IGROV1 ovarian | > 100 µM
S=c1nc2[nH]c3ccc(Br)cc3c2n[nH]1 | IGROV1 ovarian | > 100 µM
CS(=O)(=O)OCCN1CCN(C(=O)c2cccc3c(Nc4ccc(S(N)(=O)=O)cc4)c4ccccc4nc23)CC1 | IGROV1 ovarian | > 100 µM
